# measured_target: T1, human GIP receptor (human) (UniProt P48546)
# T1 sequence (looked up): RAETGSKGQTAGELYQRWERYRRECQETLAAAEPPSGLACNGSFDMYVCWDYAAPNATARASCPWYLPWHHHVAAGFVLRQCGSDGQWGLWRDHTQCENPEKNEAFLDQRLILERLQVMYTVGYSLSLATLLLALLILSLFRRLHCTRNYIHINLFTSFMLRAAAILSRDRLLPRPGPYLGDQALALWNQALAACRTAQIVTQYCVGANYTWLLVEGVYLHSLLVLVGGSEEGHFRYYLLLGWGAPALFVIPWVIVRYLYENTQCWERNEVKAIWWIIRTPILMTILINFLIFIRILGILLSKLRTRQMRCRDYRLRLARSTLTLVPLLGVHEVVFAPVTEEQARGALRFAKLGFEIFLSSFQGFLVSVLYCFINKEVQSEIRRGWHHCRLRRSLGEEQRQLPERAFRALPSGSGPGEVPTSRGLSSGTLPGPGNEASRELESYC
# test_description: cell-based or functional assay
experimental_endpoint: cAMP Rel EC50 (1% HSA) (nM)

INSERT INTO assay_data (binder, reported_measurement) VALUES
  ('YXQGTXTSDXSIXLDXXAQXXFIEXLIEGGPSSGEPPPETE (synthetic construct; SITE 2: note = 2-Aminoisobutyric Acid; SITE 6: note = alpha-methyl-2-fluoro-L-phenylalanine; SITE 10: note = 3-(4-Pyridyl)-L-alanine; SITE 13: note = alpha-methyl-leucine; SITE 16: note = L-ornithine; SITE 17: note = Ornithine is chemically modified through conjugation of the ep) [Example 1209]', 0.565),
  ('YXQGTXTSDXXIXLDXKAQXXFIEXLQEGGPSSGEPPPSGTE (synthetic construct; SITE 2: note = 2-Aminoisobutyric Acid; SITE 6: note = alpha-methyl-2-fluoro-L-phenylalanine; SITE 10: note = 3-(4-Pyridyl)-L-alanine; SITE 11: note = alpha-methyl-L-serine; SITE 13: note = alpha-methyl-leucine; SITE 16: note = L-ornithine; SITE 17: note = Lysine is chemically mo) [Example 504]', 1.8),
  ('YXQGTFTSDXSXXLDXKAQXAFIEXLLEGGPSSGAPPPSGS (non-natural residues; lysine acylated AEEA-γGlu-C18 diacid; C-terminal amide; synthetic construct; SITE 2: note = 2-Aminoisobutyric Acid; SITE 10: note = 3-(4-Pyridyl)-L-alanine; SITE 12: note = L-ornithine; SITE 13: note = alpha-methyl-leucine; SITE 16: note = L-ornithine; SITE 17: note = Lysine is chemically modified through conjugation of the epsilon-amino group of the Lys) [Example 933]', 35.1),
  ('YXQGTFTSDXSXXLDXKAQXAFIEXLLEGGPSSGAPPPSGSEE (Aib, 4Pal, Orn, αMeL, αMeY; lysine acylated C18 diacid; amide; synthetic construct; SITE 2: note = 2-Aminoisobutyric Acid; SITE 10: note = 3-(4-Pyridyl)-L-alanine; SITE 12: note = L-ornithine; SITE 13: note = alpha-methyl-leucine; SITE 16: note = L-ornithine; SITE 17: note = Lysine is chemically modified through conjugation of the epsilon-amino group of the Lys) [Example 1064]', 62.5),
  ('YXQGTXTSDXSILLDKKAQXAFIEXLEEGGPSSGAPPPSGEGE (synthetic construct; SITE 2: note = 2-Aminoisobutyric Acid; SITE 6: note = alpha-methyl-2-fluoro-L-phenylalanine; SITE 10: note = 3-(4-Pyridyl)-L-alanine; SITE 17: note = Lysine is chemically modified through conjugation of the epsilon-amino group of the Lysine side chain with (gamma-Glu)2-CO-(CH2)1) [Example 667]', 1.46),
  ('YXQGTXTSDXXIXLDXKAAXEFIEXLVEGGPSSGAPPPSGS (synthetic construct; SITE 2: note = 2-Aminoisobutyric Acid; SITE 6: note = alpha-methyl-2-fluoro-L-phenylalanine; SITE 10: note = 3-(4-Pyridyl)-L-alanine; SITE 11: note = alpha-methyl-L-serine; SITE 13: note = alpha-methyl-leucine; SITE 16: note = L-ornithine; SITE 17: note = Lysine is chemically mo) [Example 693]', 1.1),
  ('YXQGTFTSDXSQXLDKKAQXAFIEXLIEXGPSSGEPPPSGEEE (non-natural residues (Aib, 4Pal, Me4Pal, αMeL); lipidated Lys; C-amide; synthetic construct; SITE 2: note = 2-Aminoisobutyric Acid; SITE 10: note = 3-(4-Pyridyl)-L-alanine; SITE 13: note = alpha-methyl-leucine; SITE 17: note = Lysine is chemically modified through conjugation of the epsilon-amino group of the Lysine side chain with (gamma-Glu)2-CO-(CH2)16-CO2H; SITE 20:) [Example 1124]', 12),
  ('YXQGTXTSDXXIXLDXKAAXEFIEXLIEGGPSSGEPPPSGGGE (synthetic construct; SITE 2: note = 2-Aminoisobutyric Acid; SITE 6: note = alpha-methyl-2-fluoro-L-phenylalanine; SITE 10: note = 3-(4-Pyridyl)-L-alanine; SITE 11: note = alpha-methyl-L-serine; SITE 13: note = alpha-methyl-leucine; SITE 16: note = L-ornithine; SITE 17: note = Lysine is chemically mo) [Example 746]', 1.44);
